- SYSTEM_TESTED: SARS-CoV-2 Spike (SARS-CoV-2), P0DTC2
- PROTOCOL_SUMMARY: inhibitor screening kit; SARS-CoV-2 Spike:ACE2 (Example 3 assay)
pIC50: −log10 of the molar value.
For each record, write down the corresponding pIC50.

Measured pIC50 of KTFLDKFNHEAEDLFLWRALWRLWRSLWRLLWK (modifications not checked) [Seq34 (LNCOV-25)] : < 6.00

NMTQGFWENPGGPTAWDLGK (modifications not checked) [Seq31 (LNCOV-37)] yielded pIC50 of < 5.00

The reported value for TAWDLGKGDFRILWRALWRLWRSLWRLLWK (modifications not checked) [Seq36 (LNCOV-28)] in terms of pIC50 is < 6.00

# binder NMTQGFWENSMLTD (modifications not checked) [Seq30 (LNCOV-36)] ; its pIC50 = < 5.00

// NMTQGFWENSMLTDLWRALWRLWRSLWRLLWK (modifications not checked) [Seq37 (LNCOV-29)] : pIC50 value = < 6.00
